Tested on: PPARg:RXRa (NR concentration 180 nM, RXRa partner concentration 90 nM)
Assay: PBM binding z-score (relative to random genomic background probes); higher = stronger binding; sequences stand for … in GC…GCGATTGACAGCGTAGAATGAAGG
Lab note: compare PBM binding z-score against 1. Equal or greater, write t. Smaller, write f.

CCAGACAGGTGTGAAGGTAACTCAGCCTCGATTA = f
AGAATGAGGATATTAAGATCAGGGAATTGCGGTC = f
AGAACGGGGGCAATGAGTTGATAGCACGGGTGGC = t
CGGACTAGGTCATTGACAGGACAGTGAATAGTAA = t
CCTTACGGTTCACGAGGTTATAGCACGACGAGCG = t
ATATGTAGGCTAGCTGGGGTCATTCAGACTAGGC = t
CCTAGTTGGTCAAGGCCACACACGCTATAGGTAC = f
CATGCTAGGTCATGGTCAGCTAATCTACAGTATG = t

Data request: State whether the measured PBM binding z-score reaches 1, counting equality as reaching it, for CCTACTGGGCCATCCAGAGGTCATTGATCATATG
Data returned: t

Data request: State whether the measured PBM binding z-score reaches 1, counting equality as reaching it, for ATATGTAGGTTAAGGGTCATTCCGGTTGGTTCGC
Data returned: t

Data request: State whether the measured PBM binding z-score reaches 1, counting equality as reaching it, for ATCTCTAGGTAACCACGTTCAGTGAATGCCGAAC
Data returned: f

----------
Overview of reported PBM binding z-score across a group of sequences:
Tested on: PXR:RXRa (NR concentration 270 nM, RXRa partner concentration 90 nM)
Test: PBM binding z-score (relative to random genomic background probes); higher = stronger binding; sequences stand for … in GC…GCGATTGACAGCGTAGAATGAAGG
Reply with the value as a number alone.

Known results for sequences:
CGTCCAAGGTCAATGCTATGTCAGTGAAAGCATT = 3.61
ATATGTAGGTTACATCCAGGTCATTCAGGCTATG = 3.82
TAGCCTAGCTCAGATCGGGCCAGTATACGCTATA = -1.09

Data request: Name the recorded PBM binding z-score of the item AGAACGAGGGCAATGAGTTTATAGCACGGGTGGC in your answer.
Data returned: 4.31

Data request: Name the recorded PBM binding z-score of the item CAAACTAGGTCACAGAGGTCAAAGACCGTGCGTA in your answer.
Data returned: 6.86

----------
Tested on: RARg homodimer (NR concentration 270 nM)
Test: PBM binding z-score (relative to random genomic background probes); higher = stronger binding; sequences stand for … in GC…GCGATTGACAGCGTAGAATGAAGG
Lab note: compare PBM binding z-score against 2. Equal or greater, write TRUE. Smaller, write FALSE.

# example entries with known answers
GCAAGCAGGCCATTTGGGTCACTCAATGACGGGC = FALSE
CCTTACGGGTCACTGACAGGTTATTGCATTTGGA = TRUE
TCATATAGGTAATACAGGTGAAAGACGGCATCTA = FALSE
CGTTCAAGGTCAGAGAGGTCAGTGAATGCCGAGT = TRUE
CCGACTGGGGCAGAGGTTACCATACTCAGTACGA = FALSE
AGAATGAAGTTATACGTAGATCAGGGAAGAAAGT = FALSE
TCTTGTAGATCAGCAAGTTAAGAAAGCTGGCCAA = FALSE
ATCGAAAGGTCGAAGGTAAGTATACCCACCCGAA = TRUE
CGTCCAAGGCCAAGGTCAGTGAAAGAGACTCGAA = TRUE
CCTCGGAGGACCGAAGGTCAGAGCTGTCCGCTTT = TRUE

Data request: State whether the measured PBM binding z-score reaches 2, counting equality as reaching it, for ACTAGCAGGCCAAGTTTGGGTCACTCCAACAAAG
Data returned: FALSE

Data request: State whether the measured PBM binding z-score reaches 2, counting equality as reaching it, for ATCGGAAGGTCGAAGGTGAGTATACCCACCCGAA
Data returned: TRUE

----------
Tested on: RXRa homodimer (NR concentration 180 nM)
Assay: PBM binding z-score (relative to random genomic background probes); higher = stronger binding; sequences stand for … in GC…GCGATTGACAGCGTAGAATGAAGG
Experimental Endpoint: PBM binding z-score
Reply with the value as a number alone.

Known results for sequences:
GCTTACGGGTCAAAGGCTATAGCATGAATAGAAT = 6.17
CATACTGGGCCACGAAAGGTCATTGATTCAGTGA = 4.9
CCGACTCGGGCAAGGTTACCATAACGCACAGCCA = 1.11
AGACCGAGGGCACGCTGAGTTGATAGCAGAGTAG = 1.31
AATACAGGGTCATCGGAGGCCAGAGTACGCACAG = 6.76

Data request: Retrieve PBM binding z-score on RXRa homodimer (NR concentration 180 nM); query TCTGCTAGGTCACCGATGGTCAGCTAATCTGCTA
Data returned: 3.28

Data request: Retrieve PBM binding z-score on RXRa homodimer (NR concentration 180 nM); query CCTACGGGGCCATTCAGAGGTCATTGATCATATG
Data returned: 4.07

Data request: Retrieve PBM binding z-score on RXRa homodimer (NR concentration 180 nM); query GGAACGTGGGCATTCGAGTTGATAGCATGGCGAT
Data returned: -0.389

Data request: Retrieve PBM binding z-score on RXRa homodimer (NR concentration 180 nM); query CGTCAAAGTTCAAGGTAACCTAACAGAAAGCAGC
Data returned: 4.71

Data request: Retrieve PBM binding z-score on RXRa homodimer (NR concentration 180 nM); query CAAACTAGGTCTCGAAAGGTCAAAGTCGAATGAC
Data returned: 6.53

----------
Overview of reported PBM binding z-score across a group of sequences:
System: LXRb homodimer (NR concentration 270 nM)
Assay: PBM binding z-score (relative to random genomic background probes); higher = stronger binding; sequences stand for … in GC…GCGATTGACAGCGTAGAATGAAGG
Reply with the value as a number alone.

Known results for sequences:
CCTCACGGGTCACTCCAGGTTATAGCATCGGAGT = 0.129
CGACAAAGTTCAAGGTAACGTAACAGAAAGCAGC = 0.658
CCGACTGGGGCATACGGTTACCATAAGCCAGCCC = -1.21
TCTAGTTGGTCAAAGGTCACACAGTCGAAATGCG = 1.46

Data request: Name the recorded PBM binding z-score of the item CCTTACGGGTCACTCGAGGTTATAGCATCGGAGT in your answer.
Data returned: -0.178

----------
Test system: RARa homodimer (NR concentration 270 nM)
Test: PBM binding z-score (relative to random genomic background probes); higher = stronger binding; sequences stand for … in GC…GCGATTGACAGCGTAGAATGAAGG
Lab note: compare PBM binding z-score against 0.7. Equal or greater, write 1.0. Smaller, write 0.0.

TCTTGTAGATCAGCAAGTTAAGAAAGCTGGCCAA = 0.0
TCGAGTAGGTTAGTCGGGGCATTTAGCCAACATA = 0.0
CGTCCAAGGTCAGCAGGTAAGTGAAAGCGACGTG = 1.0
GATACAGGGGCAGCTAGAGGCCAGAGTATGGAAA = 0.0
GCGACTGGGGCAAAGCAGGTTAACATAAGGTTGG = 0.0

Data request: State whether the measured PBM binding z-score reaches 0.7, counting equality as reaching it, for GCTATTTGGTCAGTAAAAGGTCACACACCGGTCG
Data returned: 1.0

Data request: State whether the measured PBM binding z-score reaches 0.7, counting equality as reaching it, for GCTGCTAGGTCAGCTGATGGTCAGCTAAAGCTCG
Data returned: 0.0

Data request: State whether the measured PBM binding z-score reaches 0.7, counting equality as reaching it, for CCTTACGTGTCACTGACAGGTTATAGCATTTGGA
Data returned: 1.0

Data request: State whether the measured PBM binding z-score reaches 0.7, counting equality as reaching it, for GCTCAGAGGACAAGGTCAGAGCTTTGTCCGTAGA
Data returned: 0.0

Data request: State whether the measured PBM binding z-score reaches 0.7, counting equality as reaching it, for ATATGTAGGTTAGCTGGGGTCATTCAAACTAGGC
Data returned: 1.0

----------
Overview of reported PBM binding z-score across a group of sequences:
System: VDR homodimer (NR concentration 270 nM)
Test: PBM binding z-score (relative to random genomic background probes); higher = stronger binding; sequences stand for … in GC…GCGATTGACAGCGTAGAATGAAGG

Data request: Name the recorded PBM binding z-score of the item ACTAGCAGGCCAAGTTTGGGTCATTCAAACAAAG in your answer.
Data returned: 0.69

Data request: Name the recorded PBM binding z-score of the item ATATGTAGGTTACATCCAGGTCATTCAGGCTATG in your answer.
Data returned: 2.88

Data request: Name the recorded PBM binding z-score of the item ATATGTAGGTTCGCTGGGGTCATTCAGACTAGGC in your answer.
Data returned: 9.1

Data request: Name the recorded PBM binding z-score of the item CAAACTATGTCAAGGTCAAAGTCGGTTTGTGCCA in your answer.
Data returned: 4.25

Data request: Name the recorded PBM binding z-score of the item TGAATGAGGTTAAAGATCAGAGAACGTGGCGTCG in your answer.
Data returned: 0.373
